Data credit: the supplement of paper PMC9262897

test system: E. coli TESEC Alr+ wild-type control; test: growth (OD600 after 10 h); higher = more growth (less inhibition); settings: compound 0.1 mM; raw OD600 reference: median of DMSO wells 0.49, cell-free background 0.052
Where a name gives a salt, the structure may show the parent alone.
measured parameter: growth
Give bare numbers.

Please supply growth for each of the following items, keeping them in order.
1. c1cnc(N2CCN(Cc3ccc4c(c3)OCO4)CC2)nc1 [Piribedil hydrochloride]
2. CCOCCn1c(N2CCCN(C)CC2)nc2ccccc21
3. Cc1cc(-c2ccccc2)nnc1NCCN1CCOCC1 [Minaprine dihydrochloride]
4. CC1(O)CCOC(=O)C1 (stereo not given)
5. Cc1onc(-c2ccccc2)c1C(=O)N[C@@H]1C(=O)N2[C@@H]1SC(C)(C)[C@@H]2C(=O)O [Oxacillin sodium]

[0.512, 0.514, 0.498, 0.506, 0.492]
